assayed-target: Calcium-dependent protein kinase 4 (Plasmodium falciparum (isolate 3D7))
test-name: PfCDPK4 kinase inhibitors, biochemical, TCAMS library (AID 1159588)
assay-conditions: recombinant PfCDPK4, Kinase-Glo ATP depletion luminescence
Measured potencies and affinities stand elsewhere. Activity calls are given as the source filed them. No cut-off is given here; in the data, nearly all actives have IC50 up to about 0.91 µM.
parameter: outcome

Examples with their reported outcome follow.
Case O=C(NC1CCC(CN2CCC(c3c[nH]c4ccccc34)CC2)CC1)c1ccc(-c2ccccc2[N+](=O)[O-])o1 (centres undefined) , Calcium-dependent protein kinase 4 (Plasmodium falciparum (isolate 3D7)), outcome recorded as inactive

Case O=C(CCC(=O)c1ccc2c3c(cccc13)CC2)NC1CCC(CN2CCC(c3c[nH]c4ccccc34)CC2)CC1 (centres undefined) , Calcium-dependent protein kinase 4 (Plasmodium falciparum (isolate 3D7)), outcome recorded as inactive

Case CN(c1cc(NC(=O)c2ccc(F)cc2)ccn1)C1CCN(Cc2cccc(F)c2)CC1 , Calcium-dependent protein kinase 4 (Plasmodium falciparum (isolate 3D7)), outcome recorded as inactive

Case CNCCCCCCOc1ccc(CC(C)NCC(O)c2cccc(C(F)(F)F)c2)cc1 (centres undefined) , Calcium-dependent protein kinase 4 (Plasmodium falciparum (isolate 3D7)), outcome recorded as inactive

Case Cc1nc2ccccc2n1C1C[C@H]2CC[C@@H](C1)N2Cc1nccn1-c1ccccc1 (some centres undefined) , Calcium-dependent protein kinase 4 (Plasmodium falciparum (isolate 3D7)), outcome recorded as inactive

New cases:
Case COCCNCc1cccc(-c2ccccc2CN(C(=O)Nc2ccccc2)C2CCN(Cc3ccccc3)CC2)c1 , Calcium-dependent protein kinase 4 (Plasmodium falciparum (isolate 3D7)), outcome recorded as inactive

Case CC(C)C[C@H](Nc1ccc(C#N)c2ccccc12)C(=O)N[C@@H]1CCCc2ccccc21 , Calcium-dependent protein kinase 4 (Plasmodium falciparum (isolate 3D7)), outcome recorded as inactive

Case CC[C@H]1CN2CCc3cc(OC)c(OC)cc3[C@@H]2C[C@@H]1C[C@H]1NCCc2c1cc(OC)c(O)c2I , Calcium-dependent protein kinase 4 (Plasmodium falciparum (isolate 3D7)), outcome recorded as inactive

Case COc1ccc2c(c1)[nH]c1c(C=Cc3ccccc3)nccc12 , Calcium-dependent protein kinase 4 (Plasmodium falciparum (isolate 3D7)), outcome recorded as inactive
